Assay: chemical genetic growth profiling, strain panel (AID 1159580);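 note: tested at 20 µM; growth read once vehicle control cultures reached saturation at 30 °C; lower values mean less growth of the strain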
Details: S. cerevisiae deletion strains, growth OD, locus YKL190W, strain CNB1
Among all 5,500 compounds or so, about 2,000 (36%) were called active. Another 18% or so got no clear call; they are omitted. Cut-off read from the data, not from the text of the source: active = normalized growth mostly below about 0.91 (no sharp cut-off); inconclusive = no clear call, values can overlap the other calls; inactive = mostly above about 0.92. Some of the results follow.
Outcome codes: active, inactive

# Molecule, Qualitative label
measured = [
    ("CC(=O)OC[C@@]1(O)C[C@@]23CCC4c5ccoc5CC[C@]4(C)C2CC[C@@H]1C3 (stereo not given in full)", "inactive"),
    ("CCOC(=O)c1c[nH]c2c(F)cccc2c1=O", "inactive"),
    ("CC(=O)Nc1c(I)cc(I)c(C(=O)O)c1I", "inactive"),
    ("CC(C)C1CCC(C(=O)N[C@@H](Cc2ccccc2)C(=O)O)CC1 (stereo not given in full)", "inactive"),
    ("O=[N+]([O-])c1cc(C(F)(F)F)cc([N+](=O)[O-])c1Oc1ccc(Cl)c(Cl)c1", "active"),
    ("Cc1cc(Oc2c([N+](=O)[O-])cc(C(F)(F)F)cc2[N+](=O)[O-])c2c(Cl)ccc(C)c2n1", "active"),
    ("CCCN(CCC)c1c([N+](=O)[O-])cc(C(F)(F)F)cc1[N+](=O)[O-]", "inactive"),
    ("Cc1onc(-c2c(Cl)cccc2Cl)c1C(=O)N1CCN(c2ncnc3scc(-c4ccccc4)c23)CC1", "inactive"),
    ("COc1ccccc1C1CCN(c2ncnc3scc(-c4ccccc4)c23)CC1", "inactive"),
    ("CCCCCC/C=C\\CCCCCCCc1cccc(O)c1C(=O)O", "inactive"),
]

Source listed as PubChem BioAssay AID1159580.
